Test system: β1-adrenoceptors (Rattus norvegicus, UniProt P18090)
Construct: Experiments were done using male Wistar rats weighing between 300 and 400 g, anesthetized with sodium pentobarbital; from tissue; host or cells: whole animal (anesthetized male Wistar rats), cardiac response in vivo
Sequence (P18090 whole entry): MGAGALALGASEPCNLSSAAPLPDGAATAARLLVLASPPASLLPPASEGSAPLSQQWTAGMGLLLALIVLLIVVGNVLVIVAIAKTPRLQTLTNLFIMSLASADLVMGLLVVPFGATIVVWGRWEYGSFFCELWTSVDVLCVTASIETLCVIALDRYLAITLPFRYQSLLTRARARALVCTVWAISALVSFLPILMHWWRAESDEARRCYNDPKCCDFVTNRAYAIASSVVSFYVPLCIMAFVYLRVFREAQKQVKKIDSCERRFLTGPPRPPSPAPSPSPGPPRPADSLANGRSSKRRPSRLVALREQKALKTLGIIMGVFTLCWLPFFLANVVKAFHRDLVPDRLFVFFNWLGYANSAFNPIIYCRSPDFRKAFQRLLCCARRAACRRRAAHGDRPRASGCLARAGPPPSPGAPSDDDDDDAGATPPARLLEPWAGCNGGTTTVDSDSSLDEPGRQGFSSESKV
Assay comment: β-adrenoceptor blocking activity: inhibition of the isoproterenol-induced increase in heart rate in anesthetized rats
Assay type: in vivo, male Wistar rats
Cond: iv, 0.05 h, read-out: β-adrenoceptor blocking action ID50
Measured attribute: ED50

QUERY: Can you share its ED50? I mean this compound: Cc1ccc(Cl)c(OCC(O)CNC(C)(C)COc2ccc(NN)nn2)c1 (centres unmarked)
RESULT: 0.15 mg/kg

QUERY: Can you share its ED50? I mean this compound: COCCc1ccccc1OCC(O)CNC(C)(C)COc1ccc(NN)nn1 (centres unmarked)
RESULT: 0.08 mg/kg

QUERY: Can you share its ED50? I mean this compound: Cc1ccccc1OCC(O)CNC(C)(C)CSc1ccc(NN)nn1 (centres unmarked)
RESULT: 0.04 mg/kg

QUERY: Can you share its ED50? I mean this compound: CC(C)(COc1ccc(NN)nn1)NCC(O)COc1ccccc1 (centres unmarked)
RESULT: 0.04 mg/kg

Continue with the compound presented below.
QUERY: Can you share its ED50? I mean this compound: CCOCc1ccccc1OCC(O)CNC(C)(C)COc1ccc(NN)nn1 (centres unmarked)
RESULT: 0.06 mg/kg

meta.source: patent EP0097202A1
